subject of test: T1, rat serum albumin (rat, UniProt P02770 25-608)
T1 construct: also called RSA
measurement description: SPR (Biacore), cross-reactivity
attribute measured: binding result

Problem: Entry DOM7r-36 (VHH, human VH dAb (AlbudAb)) VHH: EVQLLESGGGLVQPGGSLRLSCAASGFTFNHYTMGWVRQAPGKGLEWVSLIHPSGTVTYYADSVKGRFTISRDNSKNTLYLQMNSLRAEDTAVYYCAKWSSRAFDYWGQGTLVTVSS : reported binding result = ?
Result: binds

Problem: Name the reported binding result value associated with the binder DOM7h-112 (VHH, human VH immunoglobulin single variable domain (dAb, AlbudAb), not camelid) VHH: EVQLLESGGGLVQPGGSLRLSCAASGFTFGGYVMGWVRQAPGKGLEWVSAINRFGSSTYYADSVKGRFTISRDNSKNTLYLQMNSLRAEDTAVYYCAKGSLRHFDYWGQGTLVTVSS
Result: binds
